Data provenance is the supplement of paper PMC11061612.

# Tested on: C2BBe1 (Colorectal Carcinoma);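 also: after 72 h of two-drug dosing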
# experiment.notes: Bliss excess, mean over the matrix (fraction); higher = more synergy
quantity.measured: Bliss excess
API doc: respond with a numeric literal and nothing else, no unit.

Lab note: COc1nnc2ccc(N3CCC(c4ccc(OCCN5CCN(C)C(=O)[C@H]5C)cc4)CC3)nn12 [AZD5153] + CC1(C)CCC(CN2CCN(c3ccc(C(=O)NS(=O)(=O)c4ccc(NCC5CCOCC5)c([N+](=O)[O-])c4)c(Oc4cnc5[nH]ccc5c4)c3)CC2)=C(c2ccc(Cl)cc2)C1 [Venetoclax] (first compound max 1 µM, 7x7, partner max 1 µM) gave Bliss excess of -0.0234

Kindly note the recorded Bliss excess for COc1cccc(OCCCN)c1-c1cc(Nc2cnc(C#N)cn2)n[nH]1 [Prexasertib] + CN(C)CCCOc1ccc(-c2ccc3ncc4c(c3c2)n(C2CCOCC2)c(=O)n4C)cn1 [AZD0156] (first compound max 1 µM, 7x7, partner max 1 µM) , which is 0.0131

// Bliss excess lookup, compound = CCN(CCO)CCCOc1ccc2c(Nc3cc(CC(=O)Nc4cccc(F)c4)[nH]n3)ncnc2c1 [AZD2811] + C[C@@H]1COCCN1C2=NC(=NC(=C2)C3(CC3)[S@](=N)(=O)C)C4=C5C=CNC5=NC=C4 [AZD6738] (first compound max 1 µM, 7x7, partner max 10 µM) , result: -0.0362
